All values here come from patent US9073895B2.

- system.name: recombinant human FLAP protein (Homo sapiens)
- measurement.description: FLAP binding assay (SPA, displacement of [125I]L-691,831)
- study.conditions: membranes of sf9 cells expressing human FLAP, [125I]L-691,831 probe; read-out: hFLAP binding IC50
pIC50: −log10 of the molar value.
Each record here notes measured pIC50.

- molecule: "Nc1ncc(-c2ccc(C3(C(=O)Nc4ccc(OC(F)(F)F)cc4)CCOCC3)cc2)cn1"
  pIC50: 7.26
- molecule: "CCN(CC)S(=O)(=O)c1cccc(NC(=O)C2(c3ccc(-c4cnc(N)nc4)cc3)CCOCC2)c1"
  pIC50: 6.95
- molecule: "Cc1cc(NC(=O)C2(c3ccc(-c4cnc(N)nc4)cc3)CCC2)nc(C)n1"
  pIC50: 7.82
- molecule: "N#Cc1ccc(NC(=O)C2(c3ccc(-c4cnc(N)nc4)cc3)CCC2)cc1Cl"
  pIC50: 8.57
- molecule: "Nc1ncc(-c2ccc(C3(C(=O)Nc4ccc(S(=O)(=O)N5CCOCC5)cc4)CCC3)cc2)cn1"
  pIC50: 8.25
- molecule: "Nc1ncc(-c2ccc(C3(C(=O)Nc4cnc5ccccc5c4)CCOCC3)cc2)cn1"
  pIC50: 7.66
- molecule: "CC(C)C(C)(C(=O)Nc1ccc(Cl)cn1)c1ccc(-c2cnc(N)nc2)cc1 (centres unmarked)"
  pIC50: 7.99
- molecule: "Cc1cnc(NC(=O)C2(c3ccc(-c4cnc(N)nc4)cc3)CCC2)s1"
  pIC50: 7.63

----------
- system.name: recombinant human FLAP protein (Homo sapiens, UniProt P20292)
- Sequence (P20292 whole entry): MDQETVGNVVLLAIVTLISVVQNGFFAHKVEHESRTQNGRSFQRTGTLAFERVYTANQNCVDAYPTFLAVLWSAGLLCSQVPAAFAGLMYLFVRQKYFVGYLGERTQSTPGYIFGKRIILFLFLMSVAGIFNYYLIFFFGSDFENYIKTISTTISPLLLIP
- measurement.description: FLAP binding assay (SPA, displacement of [125I]L-691,831)
- study.conditions: membranes of sf9 cells expressing human FLAP, [125I]L-691,831 probe; read-out: hFLAP binding IC50
pIC50: −log10 of the molar value.
Each record here notes measured pIC50.

- compound: "Cc1nc(-c2ccc(NC(=O)C3(c4ccc(-c5cnc(N)nc5)cc4)CC3)nc2)cs1"
  pIC50: 7.80
- compound: "Nc1ncc(-c2ccc(C3(C(=O)Nc4ccc(C(F)(F)F)cc4)CCOCC3)cc2)cn1"
  pIC50: 6.92
- compound: "Cc1ccc(NC(=O)C2(c3ccc(-c4cnc(N)nc4)cc3)CCOCC2)nc1"
  pIC50: 6.96
- compound: "Nc1ncc(-c2ccc(C3(C(=O)Nc4cccc(-c5ccncc5)c4)CCOCC3)cc2)cn1"
  pIC50: 7.37
- compound: "Nc1ncc(-c2ccc(C3(C(=O)Nc4ccccn4)CCOCC3)cc2)cn1"
  pIC50: 6.52
- compound: "Cc1nc(-c2ccc(NC(=O)C(c3ccc(-c4cnc(N)nc4)cc3)C(C)C)nc2)cs1 (centres unmarked)"
  pIC50: 8.03
- compound: "Nc1ncc(-c2ccc(C3(C(=O)Nc4nc(-c5ccccn5)cs4)CCOCC3)cc2)cn1"
  pIC50: 7.90
- compound: "Cc1cc(NC(=O)C2(c3ccc(-c4cnc5[nH]ccc5c4)cc3)CCC2)ccn1"
  pIC50: 8.84

----------
- system.name: recombinant human FLAP protein (Homo sapiens)
- measurement.description: FLAP binding assay (SPA, displacement of [125I]L-691,831)
- study.conditions: membranes of sf9 cells expressing human FLAP, [125I]L-691,831 probe; read-out: hFLAP binding IC50
- Protocol: Compounds are assessed for the ability to bind to FLAP in a binding assay that measures compound-specific displacement of an iodinated (^125I) FLAP inhibitor via a Scintillation Proximity Assay format (adapted from S. Charleson et al., Mol. Pharmacol., 1992, 41, 873-879). Cell pellets produced from sf9 insect cells expressing recombinant human FLAP protein are resuspended in buffer A [15 mM Tris-HCl (pH 7.5), 2 mM MgCl2, 0.3 mM EDTA, 1 mM PMSF]. […]
endpoint: IC50

- compound: "CC(C)C(C)(C(=O)Nc1ccncc1)c1ccc(-c2ccc(N(C)C)nc2)cc1 (centres unmarked) [Example 227]"
  system.name: "recombinant human FLAP protein (Homo sapiens)"
  result: "40.5 nM"
- compound: "Cc1cc(NC(=O)C2(c3ccc(-c4cnc(N)nc4)cc3)CCC2)ccn1 [Example 186]"
  system.name: "recombinant human FLAP protein (Homo sapiens)"
  result: "3.2 nM"
- compound: "Nc1ncc(-c2ccc(C3(C(=O)Nc4ccc5c(c4)CCC5)CCOCC3)cc2)cn1 [Example 6]"
  system.name: "recombinant human FLAP protein (Homo sapiens)"
  result: "150 nM"
- compound: "Nc1ncc(-c2ccc(C3(C(=O)Nc4ccncc4)CCC3)cc2)cn1 [Example 177]"
  system.name: "recombinant human FLAP protein (Homo sapiens)"
  result: "5.1 nM"
- compound: "Nc1ncc(-c2ccc(C3(C(=O)Nc4n[nH]c(-c5ccccc5)n4)CCC3)cc2)cn1 [Example 243]"
  system.name: "recombinant human FLAP protein (Homo sapiens)"
  result: "22 nM"

----------
Each record here notes measured IC50.
- system.name: recombinant human FLAP protein (Homo sapiens, UniProt P20292)
- Construct: made in house; host or cells: Sf9 insect cells (membrane fraction, 100,000 x g pellet)
- measurement.description: FLAP binding assay (SPA, displacement of [125I]L-691,831)
- study.conditions: membranes of sf9 cells expressing human FLAP, [125I]L-691,831 probe; read-out: hFLAP binding IC50
endpoint: IC50 (nM)

- molecular.string: "Cc1nc(-c2cccc(NC(=O)C3(c4ccc(-c5cnc(N)nc5)cc4)CCOCC3)c2)cs1"
  number: 42
- molecular.string: "Cc1nc(-c2ccc(NC(=O)C3(c4ccc(-c5ccc(N)nc5)cc4)CCOCC3)nc2)cs1"
  number: 27.5
- molecular.string: "CC(C)n1ncc2cc(NC(=O)C3(c4ccc(-c5cnc(N)nc5)cc4)CCOCC3)cnc21"
  number: 68.5
- molecular.string: "CC(C)(C)OC(=O)N1CCc2cc(NC(=O)C3(c4ccc(-c5cnc(N)nc5)cc4)CCOCC3)ccc2C1"
  number: 48
- molecular.string: "Nc1ncc(-c2ccc(C3(C(=O)Nc4ccc(-c5csnn5)cc4)CCOCC3)cc2)cn1"
  number: 8.65
- molecular.string: "Nc1ncc(-c2ccc(C3(C(=O)Nc4ccc(N5CCOCC5)cc4)CCC3)cc2)cn1"
  number: 34
- molecular.string: "CS(=O)(=O)c1ccc(NC(=O)C2(c3ccc(-c4cnc(N)nc4)cn3)CCC2)cc1"
  number: 87
- molecular.string: "Cc1ccc(NC(=O)C2(c3ccc(-c4cnc(N)nc4)cc3)CCOCC2)cc1C#N"
  number: 33.5

----------
Each record here notes measured pIC50.
- system.name: recombinant human FLAP protein (Homo sapiens)
- measurement.description: FLAP binding assay (SPA, displacement of [125I]L-691,831)
- study.conditions: membranes of sf9 cells expressing human FLAP, [125I]L-691,831 probe; read-out: hFLAP binding IC50
pIC50: −log10 of the molar value.

- compound: "Nc1ncc(-c2ccc(C3(C(=O)Nc4ccc(-c5cscn5)cn4)CCOCC3)cc2)cn1 [Example 143]"
  pIC50: 7.77
- compound: "COc1ccc(NC(=O)C2(c3ccc(-c4cnc(N)nc4)cc3)CCOCC2)cn1 [Example 2]"
  pIC50: 6.68
- compound: "Cc1nccn1-c1ccc(NC(=O)C2(c3ccc(-c4cnc(N)nc4)cc3)CCC2)cc1 [Example 229]"
  pIC50: 8.18
- compound: "CC(C)(C)c1cc(NC(=O)C2(c3ccc(-c4cnc(N)nc4)cc3)CCOCC2)ccn1 [Example 47]"
  pIC50: 7.19

----------
- system.name: recombinant human FLAP protein (Homo sapiens)
- Construct: made in house; host or cells: Sf9 insect cells (membrane fraction, 100,000 x g pellet)
- measurement.description: FLAP binding assay (SPA, displacement of [125I]L-691,831)
- study.conditions: membranes of sf9 cells expressing human FLAP, [125I]L-691,831 probe; read-out: hFLAP binding IC50
pIC50: −log10 of the molar value.
Each record here notes measured pIC50.
endpoint: pIC50

- molecule: "CC(C)(C)c1noc(NC(=O)C2(c3ccc(-c4cnc(N)nc4)cc3)CCCCC2)n1 [Example 126]"
  number: 6.74
- molecule: "Nc1ncc(-c2ccc(C3(C(=O)Nc4ccc5c(c4)OCO5)CCOCC3)cc2)cn1 [Example 9]"
  number: 6.70
- molecule: "Cc1cc(C)c2ccc(NC(=O)C3(c4ccc(-c5cnc(N)nc5)cc4)CCOCC3)nc2n1 [Example 38]"
  number: 7.23
- molecule: "COc1ccc(NC(=O)C2(c3ccc(-c4cnc(N)nc4)cc3)CCOCC2)cc1Cl [Example 14]"
  number: 8.05
- molecule: "NC(=O)c1ccc(NC(=O)C2(c3ccc(-c4cnc(N)nc4)cc3)CCC2)cn1 [Example 240]"
  number: 8.36
- molecule: "Nc1ncc(-c2ccc(C3(C(=O)Nc4nc5ccccc5s4)CCOCC3)cc2)cn1 [Example 55]"
  number: 7.54
- molecule: "Cc1nc(-c2ccc(NC(=O)C3(c4ccc(-c5cnc(N)nc5)cc4)CCOCC3)nc2)cs1 [Example 122]"
  number: 8.02
- molecule: "CC(C)C(C)(C(=O)Nc1ccncc1)c1ccc(-c2cnc(N)nc2)cc1 (centres unmarked) [Example 169]"
  number: 8.28
- molecule: "CC(C)(C)c1ccc(NC(=O)C2(c3ccc(-c4cnc(N)nc4)cc3)CCOCC2)cc1 [Example 17]"
  number: 6.48
- molecule: "Nc1ncc(-c2ccc(C3(C(=O)Nc4cc(-c5ccncc5)no4)CCOCC3)cc2)cn1 [Example 58]"
  number: 6.77
- molecule: "Cc1nc(-c2ccc(NC(=O)C3(c4ccc(-c5cnc(N)c(C)n5)cc4)CCOCC3)nc2)cs1 [Example 182]"
  number: 7.49
- molecule: "Nc1ncc(-c2ccc(C3(C(=O)Nc4ccc5c(c4)C(=O)OC5)CCOCC3)cc2)cn1 [Example 71]"
  number: 6.72
- molecule: "Cc1nc(NC(=O)C2(c3ccc(-c4cnc(N)nc4)cc3)CCC2)sc1C [Example 209]"
  number: 7.89
- molecule: "N#Cc1ccc(NC(=O)C2(c3ccc(-c4cnc(N)nc4)nc3)CCC2)cc1 [Example 98]"
  number: 7.92
- molecule: "Cc1nc2cc(NC(=O)C3(c4ccc(-c5cnc(N)nc5)cc4)CCOCC3)ccc2s1 [Example 75]"
  number: 7.17
- molecule: "Nc1ncc(-c2ccc(C3(C(=O)Nc4ccc(-c5ccccc5)nc4)CCOCC3)cc2)cn1 [Example 67]"
  number: 7.84
- molecule: "Cc1cc(C)nc(NC(=O)C2(c3ccc(-c4cnc(N)nc4)cc3)CCOCC2)c1 [Example 10]"
  number: 6.62
- molecule: "Nc1ncc(-c2ccc(C3(C(=O)Nc4ccnnc4)CCC3)cc2)cn1 [Example 215]"
  number: 7.75
- molecule: "COCCNc1ncc(-c2ccc(C3(C(=O)Nc4ccc(-c5csc(C)n5)cn4)CCOCC3)cc2)cn1 [Example 207]"
  number: 6.64
- molecule: "Cn1cc(NC(=O)C2(c3ccc(-c4cnc(N)nc4)cc3)CCC2)cn1 [Example 110]"
  number: 6.92
- molecule: "Cc1nc(-c2ccc(NC(=O)C3(c4ccc(-c5cnc(N)nc5)cn4)CCOCC3)nc2)cs1 [Example 128]"
  number: 6.85
- molecule: "Cc1nc(-c2ccc(NC(=O)C3(c4ccc(-c5cnc(N)c(C)c5)cc4)CCOCC3)nc2)cs1 [Example 152]"
  number: 7.46
- molecule: "Cc1cccc(NC(=O)C2(c3ccc(-c4cnc(N)nc4)cc3)CCOCC2)n1 [Example 141]"
  number: 6.72
- molecule: "O=C(Nc1ccc(Oc2ccccc2)cn1)C1(c2ccc(-c3cnc4[nH]ccc4c3)cc2)CCC1 [Example 198]"
  number: 8.43
- molecule: "COc1ccc(-c2ccc(NC(=O)C3(c4ccc(-c5cnc(N)nc5)cc4)CCOCC3)nc2)cn1 [Example 134]"
  number: 7.76
- molecule: "Cc1nc(-c2ccc(NC(=O)C3(c4ccc(-c5cnc6c(c5)CCN6)cc4)CCOCC3)nc2)cs1 [Example 153]"
  number: 8.11
- molecule: "Nc1ncc(-c2ccc(C3(C(=O)Nc4nc(-c5ccncc5)cs4)CCC3)cc2)cn1 [Example 254]"
  number: 8.80
- molecule: "COc1cncc(-c2ccc(C(C)(C(=O)Nc3ccc(-c4csc(C)n4)cc3)C(C)C)cc2)c1 (centres unmarked) [Example 112]"
  number: 6.64
- molecule: "Cc1nnnn1-c1ccc(NC(=O)C2(c3ccc(-c4cnc(N)nc4)cc3)CCOCC2)cc1 [Example 4]"
  number: 7.41
- molecule: "Nc1ncc(-c2ccc(C3(C(=O)Nc4ccc(-c5ccncc5)cn4)CCC3)cc2)cn1 [Example 238]"
  number: 8.63
- molecule: "Nc1ncc(-c2ccc(C3(C(=O)Nc4ccc(S(=O)(=O)N5CCOCC5)cc4)CCOCC3)cc2)cn1 [Example 64]"
  number: 7.32
- molecule: "CCCCCc1ccnc(NC(=O)C2(c3ccc(-c4cnc(N)nc4)cc3)CCOCC2)c1 [Example 161]"
  number: 7.51
